Across several studies, compounds have been characterized by their IC50 on UniProtKB O75460; a selection follows.

CCc1cc(-c2ccc(NS(=O)(=O)c3ccccc3Cl)nc2C)cc2cnc(N[C@H]3CC[C@H](N(C)C)CC3)nc12 : < 5 nM

Returns the measured IC50 for the input compound. Input: O=Cc1c(O)ccc2cc(N3CCC(N4CCOCC4)C3)ccc12 (stereo not drawn)
> 1000 nM

Follow-up entry: `COc1cc(-c2ccc(NS(=O)(=O)c3ccccc3Cl)cc2C)cc2cnc(N[C@H]3CC[C@H](N)CC3)nc12`
≤ 5 nM

Follow-up entry: Cc1nc(NS(=O)(=O)c2cccc(F)c2Cl)ccc1/C=C/c1cnc(NC2CCC(N(C)C)CC2)nc1 (stereo not drawn)
≤ 1 nM

Follow-up entry: `CCc1cc(-c2cc(NC(=O)Nc3cc(C(F)(F)F)ccc3C(F)(F)F)nn2C)cc2cnc(N[C@H]3CC[C@H](N)CC3)nc12`
≤ 5 nM

Follow-up entry: `Cc1cc(NS(=O)(=O)C2(C)CC2)c2ccccc2c1Oc1ncccc1-c1ccnc(N[C@@H]2CNC[C@@H](F)C2)n1`
32 nM
